# Test system: HuT 78 cells
# PROTOCOL_NOTES: CellTiter-Glo cell viability, HuT 78
# Type: cell-based
# SETUP_CONDITIONS: Homo sapiens, HuT78, 72 h, read-out: Absolute IC50
# Method: The cell viability of 50 cancer cell lines was studied after treatment with Compound 121. […] GI50 values were determined according to the examples described above. […] Cells were harvested during a logarithmic growth period and cell number count was determined using Count-star. […] 10 μL of culture medium was added to each well of plate A for TO reading. […] IC50 and GI50 values for each of the 50 cell lines are presented in Table 6 and were calculated based on the dose-response curves depicted in FIGS. 1-50. […]

SAMPLE_SMILES	TEST_SYSTEM	IC50
Cc1cc(N2CCOC[C@@H]2C)ccc1-c1ccc(CC(=O)NCc2ccc(F)cc2)nc1	HuT 78 cells	9 nM

---

# PROTOCOL_NOTES: Brain permeability (brain:plasma ratio)
# Assay type: in vivo
# SETUP_CONDITIONS: time point 2 h, read-out: Brain:Plasma (B:P) Average
# Method: Brain permeability can be measured by various methods known in the art. For example, brain permeability can be measured by calculating the ratio between the concentration of a compound of the application in the brain and the concentration of the compound in the plasma (i.e., BP ratio). In one aspect, a compound of the application has a B:P ratio of at least 1.0, 1.1, 1.2, 1.3, 1.4, 1.5, 1.6, 1.7, 1.8, 1.9, or 2.0 at 1 hour after administration of the compound to a subject. […]

MOLECULE	Kp at 2 h
O=C(Cc1ccc(-c2ccc(N3CCOCC3)cc2)cn1)NCc1cccc(F)c1 [Compound Y, reference compound]	0.712
Cc1cc(N2CCOC[C@@H]2C)ccc1-c1ccc(CC(=O)NCc2ccccc2F)nc1	1.38
Cc1cc(N2CCOC[C@@H]2C)ccc1-c1ccc(CC(=O)NCc2ccc(F)cc2)nc1	1.93

---

# Tested on: SK-OV-3 cells
# PROTOCOL_NOTES: CellTiter-Glo cell viability, SK-OV-3
# Type: cell-based
# SETUP_CONDITIONS: 72 h, read-out: Absolute IC50

COMPOUND	IC50
N.N.[Cl][Pt][Cl] [Cisplatin, reference compound]	6.69 µM

---

# PROTOCOL_NOTES: Pharmacokinetic properties after IV and PO administration
# Format: in vivo
# SETUP_CONDITIONS: in vivo; IV Administration (5 mg/kg)

MOLECULE	clearance
Cc1cc(N2CCOC[C@@H]2C)ccc1-c1ccc(CC(=O)NCc2ccccc2F)nc1	88.7 mL/min/kg
O=C(Cc1ccc(-c2ccc(N3CCOCC3)cc2)cn1)NCc1cccc(F)c1 [Compound Y, reference compound]	30.2 mL/min/kg
Cc1cc(N2CCOC[C@@H]2C)ccc1-c1ccc(CC(=O)NCc2ccc(F)cc2)nc1	29 mL/min/kg

---

# System: HCT-116 cells
# PROTOCOL_NOTES: CellTiter-Glo cell viability, HCT-116
# Type: cell-based
# SETUP_CONDITIONS: Homo sapiens, 72 h, read-out: Absolute IC50

SAMPLE_SMILES	DISPLAY_UNIT	IC50
Cc1cc(N2CCOC[C@@H]2C)ccc1-c1ccc(CC(=O)NCc2ccc(F)cc2)nc1	nM	9

---

# System: 786-O cells
# PROTOCOL_NOTES: CellTiter-Glo cell viability, 786-O
# Type: cell-based
# SETUP_CONDITIONS: 72 h, read-out: Absolute IC50
pIC50: −log10 of the molar value.
QUANTITY_KIND: pIC50

MOLECULE	TEST_SYSTEM	QUANTITY_KIND	TEST_RESULT
N.N.[Cl][Pt][Cl] [Cisplatin, reference compound]	786-O cells	pIC50	5.75

---

# System: HT-1376 cells
# PROTOCOL_NOTES: CellTiter-Glo cell viability, HT-1376
# Assay type: cell-based
# SETUP_CONDITIONS: 72 h, read-out: Absolute IC50
pIC50: −log10 of the molar value.

MOLECULE	TEST_SYSTEM	pIC50
N.N.[Cl][Pt][Cl] [Cisplatin, reference compound]	HT-1376 cells	5.49

---

# Tested on: K-562 cells
# PROTOCOL_NOTES: CellTiter-Glo cell viability, K-562
# Type: cell-based
# SETUP_CONDITIONS: Homo sapiens, K562, 72 h, read-out: Absolute IC50
QUANTITY_KIND: IC50 (nM)

SAMPLE_SMILES	DISPLAY_UNIT	TEST_RESULT
Cc1cc(N2CCOC[C@@H]2C)ccc1-c1ccc(CC(=O)NCc2ccc(F)cc2)nc1	nM	6

---

# PROTOCOL_NOTES: Pharmacokinetic properties after IV and PO administration
# Format: in vivo
# SETUP_CONDITIONS: in vivo; PO Administration (20 mg/kg)
The entries below are paired with their reported Cmax.
QUANTITY_KIND: Cmax (ng/mL)

COMPOUND	QUANTITY_KIND	TEST_RESULT
Cc1cc(N2CCOC[C@@H]2C)ccc1-c1ccc(CC(=O)NCc2ccc(F)cc2)nc1	Cmax	2170
Cc1cc(N2CCOC[C@@H]2C)ccc1-c1ccc(CC(=O)NCc2ccccc2F)nc1	Cmax	798
O=C(Cc1ccc(-c2ccc(N3CCOCC3)cc2)cn1)NCc1cccc(F)c1 [Compound Y, reference compound]	Cmax	2590

---

# System: KP4 cells
# PROTOCOL_NOTES: CellTiter-Glo cell viability, KP4
# Format: cell-based
# SETUP_CONDITIONS: Homo sapiens, KP-4, 72 h, read-out: Absolute IC50
QUANTITY_KIND: IC50 (nM)

SAMPLE_SMILES	DISPLAY_UNIT	TEST_RESULT
Cc1cc(N2CCOC[C@@H]2C)ccc1-c1ccc(CC(=O)NCc2ccc(F)cc2)nc1	nM	8

---

# PROTOCOL_NOTES: Brain permeability (brain:plasma ratio)
# Format: in vivo
# SETUP_CONDITIONS: time point 0.25 h, read-out: Brain:Plasma (B:P) Average
# Description: Brain permeability can be measured by various methods known in the art. For example, brain permeability can be measured by calculating the ratio between the concentration of a compound of the application in the brain and the concentration of the compound in the plasma (i.e., BP ratio). In one aspect, a compound of the application has a B:P ratio of at least 1.0, 1.1, 1.2, 1.3, 1.4, 1.5, 1.6, 1.7, 1.8, 1.9, or 2.0 at 1 hour after administration of the compound to a subject. […]
The entries below are paired with their reported Kp at 0.25 h.
QUANTITY_KIND: Kp at 0.25 h

MOLECULE	TEST_RESULT
Cc1cc(N2CCOC[C@@H]2C)ccc1-c1ccc(CC(=O)NCc2ccccc2F)nc1	1.24
O=C(Cc1ccc(-c2ccc(N3CCOCC3)cc2)cn1)NCc1cccc(F)c1 [Compound Y, reference compound]	1.56
Cc1cc(N2CCOC[C@@H]2C)ccc1-c1ccc(CC(=O)NCc2ccc(F)cc2)nc1	1.08

---

# PROTOCOL_NOTES: Brain permeability (brain:plasma ratio)
# Type: in vivo
# SETUP_CONDITIONS: time point 0.5 h, read-out: Brain:Plasma (B:P) Average

COMPOUND	Kp at 0.5 h
O=C(Cc1ccc(-c2ccc(N3CCOCC3)cc2)cn1)NCc1cccc(F)c1 [Compound Y, reference compound]	1.46
Cc1cc(N2CCOC[C@@H]2C)ccc1-c1ccc(CC(=O)NCc2ccccc2F)nc1 [Compound 120]	1.39
Cc1cc(N2CCOC[C@@H]2C)ccc1-c1ccc(CC(=O)NCc2ccc(F)cc2)nc1 [Compound 121]	1.37

---

# Test system: K-562 cells
# PROTOCOL_NOTES: CellTiter-Glo cell viability, K-562
# Assay type: cell-based
# SETUP_CONDITIONS: 72 h, read-out: Absolute IC50
pIC50: −log10 of the molar value.

COMPOUND	pIC50
N.N.[Cl][Pt][Cl] [Cisplatin, reference compound]	5.35

---

The entries below are paired with their reported Kp at 1 h.
# PROTOCOL_NOTES: Brain permeability (brain:plasma ratio)
# Format: in vivo
# SETUP_CONDITIONS: time point 1 h, read-out: Brain:Plasma (B:P) Average
QUANTITY_KIND: Kp at 1 h

COMPOUND	TEST_RESULT
Cc1cc(N2CCOC[C@@H]2C)ccc1-c1ccc(CC(=O)NCc2ccccc2F)nc1 [Compound 120]	1.72
O=C(Cc1ccc(-c2ccc(N3CCOCC3)cc2)cn1)NCc1cccc(F)c1 [Compound Y, reference compound]	1.33
Cc1cc(N2CCOC[C@@H]2C)ccc1-c1ccc(CC(=O)NCc2ccc(F)cc2)nc1 [Compound 121]	1.53

---

# Tested on: AsPC-1 cells
# PROTOCOL_NOTES: CellTiter-Glo cell viability, AsPC-1
# Assay type: cell-based
# SETUP_CONDITIONS: Homo sapiens, ASPC1, 72 h, read-out: Absolute IC50

SAMPLE_SMILES	IC50
Cc1cc(N2CCOC[C@@H]2C)ccc1-c1ccc(CC(=O)NCc2ccc(F)cc2)nc1	> 10 µM
